target: Fyn (UniProt P06241); assay: phosphorylation enrichment, bacterial display (enrichment ratio); higher = better substrate or ligand; peptides without Tyr show the background;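 further: 11-residue human phosphosite peptides and single-mutation variants displayed on the E. coli surface, counted by deep sequencing, each peptide's frequency after selection divided by its frequency in the unselected input library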;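 further: frequency after pTyr selection over input frequency; kinase dosed for 20-30% of maximal phosphorylation in three min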
Sequence (P06241 whole entry, looked up): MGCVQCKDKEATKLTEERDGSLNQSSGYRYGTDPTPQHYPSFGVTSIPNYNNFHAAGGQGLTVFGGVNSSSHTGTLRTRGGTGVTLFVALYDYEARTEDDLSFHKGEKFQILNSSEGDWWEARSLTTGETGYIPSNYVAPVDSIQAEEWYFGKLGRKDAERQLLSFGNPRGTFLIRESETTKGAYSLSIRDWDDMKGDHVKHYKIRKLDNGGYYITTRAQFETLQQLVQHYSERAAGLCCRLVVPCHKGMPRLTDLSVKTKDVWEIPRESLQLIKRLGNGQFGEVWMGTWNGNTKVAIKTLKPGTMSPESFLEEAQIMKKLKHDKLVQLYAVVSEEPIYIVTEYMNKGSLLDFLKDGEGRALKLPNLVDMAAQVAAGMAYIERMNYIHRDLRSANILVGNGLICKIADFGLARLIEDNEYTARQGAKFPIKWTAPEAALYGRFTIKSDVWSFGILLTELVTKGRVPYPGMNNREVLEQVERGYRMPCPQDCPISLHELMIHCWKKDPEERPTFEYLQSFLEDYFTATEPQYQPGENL
phosphorylation enrichment of 0.6 or higher: Yes. Under 0.6: No.

Example cases with answers are listed next.
FFLGKYLQEVL [KLB_Y910_YF] = No
KWELRYMHSRV [ABCD1_Y281_G277W] = No
PGIRMYRVQFN [LRFN1_Y454_Q455R_YF] = Yes

Is phosphorylation enrichment for PVQDAYQKVVA [HBB_Y131_A129D] at or above 0.6?
No

Is phosphorylation enrichment for KKFVPYYDLFM [IPO5_Y530_E525K] at or above 0.6?
Yes

Is phosphorylation enrichment for FQEKGYNKELR [CHRND_Y38] at or above 0.6?
No

Is phosphorylation enrichment for GLCSYYETSKM [MAGED2_Y449_R446C] at or above 0.6?
Yes

Is phosphorylation enrichment for GESLTYVSTTF [C1orf162_Y120_A121V] at or above 0.6?
No
